Parameter composite z-score: see the listing below.
# measurement.description: binders from COS7 lysate, DM2A8 probe, primary screen, torsin A project, cell lysate, small-molecule microarray, fluorescence 635/667 (AID 1065)
# measurement.setup: higher = more signal, COS7 lysate expressing mutant human TOR1A
Give the value as a plain number.

Guide cases for composite z-score, answers given:
{"structure.smiles": "C/C=C/[C@H](CCn1cc([C@H](O)c2ccccc2)nn1)[Si](C)(C)c1ccc(OC)cc1", "composite z-score": -0.153}
{"structure.smiles": "CCOC(=O)C[C@H]1[C@H](OC(=O)c2ccccc2-c2ccccc2)[C@@H](NC(=O)c2ccc(-c3ccccc3)cc2)c2cc(OCCCO)ccc2N1C(=O)c1ccccc1", "composite z-score": 0.167}
{"structure.smiles": "C=CCOC(=O)[C@@H]1[C@H]2C(=O)O[C@H](c3ccccc3)[C@H](c3ccccc3)N2[C@H](c2ccc(OCCOC(=O)[C@H]3C[C@H]4C(=O)N[C@@H](CC(C)C)C(=O)N4[C@H]3c3cccc(OCCO)c3)cc2)[C@@]12C(=O)Nc1ccc(I)cc12", "composite z-score": 0.83}
{"structure.smiles": "COC(=O)[C@@]1(Cc2ccc(OC)cc2)[C@H]2c3cc(C(=O)N(C)C)n(Cc4ccc(OC)c(OC)c4)c3C[C@H]2CN1C(=O)c1ccccc1", "composite z-score": 0.796}

Now for the compound whose composite z-score we want.
Lookup: What does the data say about its composite z-score? Entry: `O=C(N1CCCCC1)[C@]1(CCS(=O)(=O)c2ccccc2)N=C(c2ccc(OCCCO)cc2)O[C@@H]1c1ccccc1`
Found: 0.815

----------
# measurement.description: probe aNOTCH3 binding on compound microarray – biochemical, small-molecule microarray, 635/667 nm fluorescence, primary screen (AID 1120);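 also: probe is a biotin-tagged antibody raised against NOTCH3 rather than NOTCH3 protein; score merges spot fluorescence near 667 nm with spot signal to noise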
# measurement.setup: higher = more signal
measure: composite z-score
Give the value as a plain number.

Guide cases for composite z-score, answers given:
{"compound": "O=C1NC(=O)C2C1C=CC(C(O)c1cccs1)N2Nc1ccccn1 (centres undefined)", "recorded.result": 0.118}
{"compound": "C=C[C@@H](C)[C@@H](OC(=O)Nc1ccc(OC)cc1)c1ccc(O)c2ccccc12", "recorded.result": -0.155}

Lookup: What does the data say about its composite z-score? Entry: `CC(C)C[C@@H]1NC(=O)[C@@H]2C[C@H](C(=O)NCCCCN(C)C)[C@H](c3ccc(O)cc3)N2C1=O`
Found: -0.236

Lookup: What does the data say about its composite z-score? Entry: O=C1OCCC=C[C@H]2OC34C=CCN(c5ccc6ccccc6c5)C(=O)[C@H]3N(CCCCCCO)C(=O)[C@@H]4C12 (some centres undefined)
Found: -0.161

----------
# measurement.description: growth of efflux-deficient E. coli DRC39 – strain DRC39, OD650, 48 h, E. coli filamentation inducers, primary screen (AID 1179);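 also: screen aims at cell division blockers that make cells filament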
# measurement.setup: E. coli DRC39 delta-acrAB growth, higher = more signal, called active from +8 up or from −8 down
Parameter z-score: see the listing below.
Give the value as a plain number.

{"molecule": "COc1ccccc1CN1C(=O)c2ccccc2[C@](Cc2ccccc2I)(C(=O)NCc2ccccc2)[C@@H]1c1ccc(CO)cc1", "z-score": 0.363}
{"molecule": "O=C1O[C@@H](c2ccccc2)[C@@H](c2ccccc2)N2[C@@H](c3ccc(O)cc3)[C@]3(C(=O)Nc4ccc(C#CCCO)cc43)[C@@H](C(=O)N3CCCCCCC3)[C@H]12", "z-score": -0.787}

Now for the molecule whose z-score we want.
Lookup: What does the data say about its z-score? Entry: CC(C)(C)OC(=O)CC[C@]1(C(=O)NCC(O)CO)N=C(c2ccc(OCCCO)cc2)O[C@H]1c1ccccc1CN=[N+]=[N-] (stereo partly drawn)
Found: -0.659

----------
Parameter composite z-score: see the listing below.
# assay.target: Dickkopf-related protein 1 (Homo sapiens) (UniProt O94907)
# Sequence (O94907 whole entry, looked up): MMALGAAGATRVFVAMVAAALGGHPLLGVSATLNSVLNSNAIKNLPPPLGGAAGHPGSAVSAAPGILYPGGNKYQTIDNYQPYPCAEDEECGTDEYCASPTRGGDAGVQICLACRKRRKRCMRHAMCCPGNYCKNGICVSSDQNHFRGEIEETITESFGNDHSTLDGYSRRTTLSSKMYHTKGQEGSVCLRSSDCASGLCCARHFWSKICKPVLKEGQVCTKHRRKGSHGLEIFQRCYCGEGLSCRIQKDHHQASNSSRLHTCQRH
# measurement.description: small molecules binding DKK1 protein – biochemical, small-molecule microarray, 635 nm fluorescence scan, primary screen (AID 1106);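 also: score merges emission near 667 nm with signal to noise over three replicate slides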
# measurement.setup: higher = more signal

{"molecule": "COCC1C2CC[C@H]3C(OCc4ccc(F)cc4C(F)(F)F)OC[C@]4(C)[C@H]3C2=C(CN4C(=O)OC(C)(C)C)[C@H](C)C1COC (stereo partly drawn)", "recorded.result": 0.202}
{"molecule": "COc1ccc(C(=O)Nc2cccc(CN3C(=O)[C@@]4(O[C@@H](CCn5cc([C@H](O)c6ccccc6)nn5)[C@H]([Si](C)(C)c5ccc(OC)cc5)[C@H]4C)c4ccccc43)c2)cc1", "recorded.result": 0.249}
{"molecule": "COc1ccc([Si](C)(C)[C@@H]2[C@@H](CCO)O[C@]3(C(=O)N(Cc4ccc(N5C(=O)c6cccc7cccc5c67)cc4)c4ccccc43)[C@H]2C)cc1", "recorded.result": -0.674}

Lookup: What does the data say about its composite z-score? Entry: `COc1ccc([Si](C)(C)[C@@H]2[C@@H](CC(=O)N3Cc4ccccc4C[C@H]3CO)O[C@]3(C(=O)N(Cc4cccc(N5C(=O)COc6ccccc65)c4)c4ccccc43)[C@H]2C)cc1`
Found: 1.01

Lookup: What does the data say about its composite z-score? Entry: Cc1cc(C)c(C(O)C2C=CC3C(=O)NC(=O)C3N2Nc2ccccn2)c(C)c1 (stereo not drawn)
Found: -0.669

Lookup: What does the data say about its composite z-score? Entry: `C=CCOC(=O)[C@H]1[C@@H]2C(=O)O[C@@H](c3ccccc3)[C@@H](c3ccccc3)N2[C@@H](c2ccc(OCCOC(=O)[C@@H]3C[C@@H]4C(=O)NCC(=O)N4[C@@H]3c3ccc(O)cc3)cc2)[C@]12C(=O)Nc1ccc(I)cc12`
Found: 0.873

Lookup: What does the data say about its composite z-score? Entry: CCCCCCCCCCC(O)C1C=CC2C(=O)N(c3ccccc3)C(=O)C2N1Nc1ccc([N+](=O)[O-])cc1 (stereo not drawn)
Found: 0.0052

Lookup: What does the data say about its composite z-score? Entry: `NC(=O)NCC#Cc1ccc2c(c1)[C@]1(C(=O)N2)[C@H](c2ccc(O)cc2)N2[C@H](c3ccccc3)[C@H](c3ccccc3)OC(=O)[C@H]2[C@@H]1C(=O)N1CCN(c2ncccn2)CC1`
Found: -0.122

Lookup: What does the data say about its composite z-score? Entry: `C=C(COC)C(=O)CC[C@H](OC(=O)c1cccnc1)c1ccccc1OCCO`
Found: 0.559

Lookup: What does the data say about its composite z-score? Entry: `Cc1cccc(/C=C/C=O)c1`
Found: -0.214

Lookup: What does the data say about its composite z-score? Entry: `O=C(NCCN1CCOCC1)[C@@H]1c2ccccc2C(=O)N(Cc2cc(F)cc(C(F)(F)F)c2)[C@H]1c1ccc(CO)cc1`
Found: -1.14

Lookup: What does the data say about its composite z-score? Entry: `CN(C)CCCN1C(=O)[C@@]2(c3ccc([N+](=O)[O-])cc3)CC(=O)N(C3CCCCC3)[C@@H]2c2ccc(CO)cc21`
Found: -0.162

Lookup: What does the data say about its composite z-score? Entry: `[N-]=[N+]=NCc1ccccc1[C@@H]1OC(c2ccc(OCCCO)cc2)=N[C@]1(Cc1ccccc1)C(=O)O`
Found: -0.617

----------
Parameter composite z-score: see the listing below.
# assay.target: Torsin-1A (Homo sapiens) (UniProt O14656)
# Sequence (O14656 whole entry, looked up): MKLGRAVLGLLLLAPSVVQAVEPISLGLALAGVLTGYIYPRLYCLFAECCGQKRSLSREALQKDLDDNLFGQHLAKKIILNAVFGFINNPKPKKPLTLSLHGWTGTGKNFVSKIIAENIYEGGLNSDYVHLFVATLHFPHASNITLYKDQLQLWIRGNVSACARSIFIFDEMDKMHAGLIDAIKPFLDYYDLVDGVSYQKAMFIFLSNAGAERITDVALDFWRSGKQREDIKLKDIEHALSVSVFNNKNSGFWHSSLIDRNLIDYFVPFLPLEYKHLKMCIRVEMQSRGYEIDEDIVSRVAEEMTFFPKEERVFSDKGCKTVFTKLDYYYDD
# measurement.description: TOR1A wild-type binding on microarray – cell lysate, small-molecule microarray, lysate, 635/667 nm, primary screen (AID 1149)
# measurement.setup: COS7 hTOR1A-WT lysate, 635 nm fluorescence, higher = more signal
Give the value as a plain number.

Guide cases for composite z-score, answers given:
{"molecule": "COC(=O)[C@@]1(Cc2ccc(F)cc2)[C@H]2c3cc(C(=O)N4CCCC4)n(CCc4ccc(OC)c(Br)c4)c3C[C@H]2CN1C(=O)c1ccccc1", "recorded.result": 0.17}
{"molecule": "Cc1ccc(S[C@]2(C(=O)NCCN3CCOCC3)CC(=O)N(C3CCCCC3)[C@@H]2c2ccc(CO)cc2)cc1", "recorded.result": 0.18}
{"molecule": "CC(C)C[C@@H]1NC(=O)[C@@H]2C[C@H](C(=O)NCCCCN(C)C)[C@H](c3ccc(O)cc3)N2C1=O", "recorded.result": 0.0266}

Lookup: What does the data say about its composite z-score? Entry: O=C1C2C=CC(C(O)CCc3ccccc3)N(Nc3ccccc3)C2C(=O)N1c1ccccc1 (stereo not given)
Found: 0.143

Lookup: What does the data say about its composite z-score? Entry: `C[n+]1ccc2ccc(O)cc2c1`
Found: 2.27

----------
Parameter composite z-score: see the listing below.
# System: Plasmodium falciparum Sir2 (PF13_0152, Sir2A)
# measurement.description: Plasmodium falciparum Sir2A binding compounds – biochemical, small-molecule microarray, 635 nm fluorescence, primary screen (AID 1098);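 also: score merges spot fluorescence intensity with its signal-to-noise ratio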
# measurement.setup: fluorescence 635 nm, higher = more signal
Give the value as a plain number.

Guide cases for composite z-score, answers given:
{"molecule": "C=CCC(OC(C)=O)[C@@H]1[C@@H](N(Cc2cc3ccccc3o2)C(=O)c2cccc3ccccc23)c2cc(OCCCO)ccc2N1C(=O)Cc1ccc(OC)cc1 (stereo partly drawn)", "assay.target": "Plasmodium falciparum Sir2 (PF13_0152, Sir2A)", "recorded.result": 0.495}
{"molecule": "COC(=O)[C@@]1(Cc2ccc(F)cc2)[C@H]2c3cc(C(=O)N(C)C)n(CCc4c[nH]c5ccc(OC)cc45)c3C[C@H]2CN1C(=O)c1ccccc1", "assay.target": "Plasmodium falciparum Sir2 (PF13_0152, Sir2A)", "recorded.result": -0.138}
{"molecule": "C=CCC(OC(C)=O)[C@@H]1[C@@H](N(Cc2cc3ccccc3o2)C(=O)c2ccc(-c3ccccc3)cc2)c2cc(OCCCO)ccc2N1C(=O)Cc1ccc2ccccc2c1 (stereo partly drawn)", "assay.target": "Plasmodium falciparum Sir2 (PF13_0152, Sir2A)", "recorded.result": -0.366}

Lookup: What does the data say about its composite z-score? Entry: Cc1cc(C)c(C(O)C2C=CC3C(=O)NC(=O)C3N2Nc2ccccn2)c(C)c1 (stereo not drawn)
Found: -0.0405

Lookup: What does the data say about its composite z-score? Entry: `O=C1O[C@H](c2ccccc2)[C@H](c2ccccc2)N2[C@H]1[C@@H](C(=O)NC[C@H](O)c1ccccc1)[C@]1(C(=O)Nc3ccc(C#CC4=CCCCC4)cc31)[C@H]2c1ccc(O)cc1`
Found: 1.29

Lookup: What does the data say about its composite z-score? Entry: `O=C1O[C@H](c2ccccc2)[C@H](c2ccccc2)N2[C@H]1[C@@H](C(=O)NC[C@H](O)c1ccccc1)[C@]1(C(=O)Nc3ccc(C#CC4(O)CCCCCC4)cc31)[C@H]2c1ccccc1OCCO`
Found: 1.51

Lookup: What does the data say about its composite z-score? Entry: `[N-]=[N+]=NCc1ccccc1C[C@@]1(C(=O)NCc2ccccc2)N=C(c2ccc(OCCCO)cc2)O[C@@H]1c1ccccc1CN=[N+]=[N-]`
Found: 1.39

Lookup: What does the data say about its composite z-score? Entry: `CCCC[C@@H]1C[C@H]1[C@@H](NC(=O)c1ccccc1)c1ccc(-c2ccccc2)cc1`
Found: -0.616

Lookup: What does the data say about its composite z-score? Entry: `C#C[C@H]1Oc2ccccc2S(=O)(=O)N2CCC[C@@H]12`
Found: 0.578

Lookup: What does the data say about its composite z-score? Entry: `COCCOC(=O)N1C(=O)[C@@]2(c3cc(C#Cc4ccc(OC)cc4)ccc31)[C@H](C(N)=O)[C@H]1C(=O)O[C@H](c3ccccc3)[C@H](c3ccccc3)N1[C@@H]2c1ccc(O)cc1`
Found: 0.356

Lookup: What does the data say about its composite z-score? Entry: `C=C(C(=O)CC[C@@H](OC(=O)c1cccnc1)c1ccc(OCCO)cc1)C(C)C`
Found: 0.603

Lookup: What does the data say about its composite z-score? Entry: COc1ccc(C(O)C2C=CC3C(=O)N(c4ccccc4)C(=O)C3N2Nc2ccccc2)c2ccccc12 (stereo not drawn)
Found: 1

Lookup: What does the data say about its composite z-score? Entry: `COC(=O)c1c2oc(c1C(=O)OC)C(=O)N[C@H](Cc1ccccc1)Cn1nncc1C1(CCCCC1)NC(=O)N[C@H](CO)CC2`
Found: 0.0465

Where do these numbers come from? They come from PubChem BioAssay.
